B1: ZNF24 (parent)
chain: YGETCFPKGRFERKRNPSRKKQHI

- Variants of: B1
- ASSAY_METHOD_TEXT: protein stability index of a GFP-peptide fusion (GPS, HEK-293T) (PSI 1-6); higher = more stable;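 further: lentivirally expressed fusions sorted by FACS into six bins by GFP to DsRed ratio, PSI derived from sequencing read proportions per bin multiplied by bin number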
- MEASUREMENT_CONDITIONS: c terminus: a fixed tail appended
Dear colleague, classification is by protein stability index, with ranges listed here: lowest = under 2, middle = from 2 up to 3, highest = 3 and over

In [3]: df
Out[3]:
    variant_annotation  assigned_class
 0                 G9W          middle
 1                Q22Y          middle
 2                R19F          lowest
 3                F11G         highest
 4                F11V          middle
 5                 G9L          middle
 6                 F6C         highest
 7                K20Y          middle
 8                N16R          middle
 9                 E3Y          middle
10                 G9V          lowest
11                I24F          middle
12                I24D          middle
